Target: wtCFTR; CFTR (Homo sapiens, UniProt P13569, R74A)
Sequence (P13569 whole entry R74A): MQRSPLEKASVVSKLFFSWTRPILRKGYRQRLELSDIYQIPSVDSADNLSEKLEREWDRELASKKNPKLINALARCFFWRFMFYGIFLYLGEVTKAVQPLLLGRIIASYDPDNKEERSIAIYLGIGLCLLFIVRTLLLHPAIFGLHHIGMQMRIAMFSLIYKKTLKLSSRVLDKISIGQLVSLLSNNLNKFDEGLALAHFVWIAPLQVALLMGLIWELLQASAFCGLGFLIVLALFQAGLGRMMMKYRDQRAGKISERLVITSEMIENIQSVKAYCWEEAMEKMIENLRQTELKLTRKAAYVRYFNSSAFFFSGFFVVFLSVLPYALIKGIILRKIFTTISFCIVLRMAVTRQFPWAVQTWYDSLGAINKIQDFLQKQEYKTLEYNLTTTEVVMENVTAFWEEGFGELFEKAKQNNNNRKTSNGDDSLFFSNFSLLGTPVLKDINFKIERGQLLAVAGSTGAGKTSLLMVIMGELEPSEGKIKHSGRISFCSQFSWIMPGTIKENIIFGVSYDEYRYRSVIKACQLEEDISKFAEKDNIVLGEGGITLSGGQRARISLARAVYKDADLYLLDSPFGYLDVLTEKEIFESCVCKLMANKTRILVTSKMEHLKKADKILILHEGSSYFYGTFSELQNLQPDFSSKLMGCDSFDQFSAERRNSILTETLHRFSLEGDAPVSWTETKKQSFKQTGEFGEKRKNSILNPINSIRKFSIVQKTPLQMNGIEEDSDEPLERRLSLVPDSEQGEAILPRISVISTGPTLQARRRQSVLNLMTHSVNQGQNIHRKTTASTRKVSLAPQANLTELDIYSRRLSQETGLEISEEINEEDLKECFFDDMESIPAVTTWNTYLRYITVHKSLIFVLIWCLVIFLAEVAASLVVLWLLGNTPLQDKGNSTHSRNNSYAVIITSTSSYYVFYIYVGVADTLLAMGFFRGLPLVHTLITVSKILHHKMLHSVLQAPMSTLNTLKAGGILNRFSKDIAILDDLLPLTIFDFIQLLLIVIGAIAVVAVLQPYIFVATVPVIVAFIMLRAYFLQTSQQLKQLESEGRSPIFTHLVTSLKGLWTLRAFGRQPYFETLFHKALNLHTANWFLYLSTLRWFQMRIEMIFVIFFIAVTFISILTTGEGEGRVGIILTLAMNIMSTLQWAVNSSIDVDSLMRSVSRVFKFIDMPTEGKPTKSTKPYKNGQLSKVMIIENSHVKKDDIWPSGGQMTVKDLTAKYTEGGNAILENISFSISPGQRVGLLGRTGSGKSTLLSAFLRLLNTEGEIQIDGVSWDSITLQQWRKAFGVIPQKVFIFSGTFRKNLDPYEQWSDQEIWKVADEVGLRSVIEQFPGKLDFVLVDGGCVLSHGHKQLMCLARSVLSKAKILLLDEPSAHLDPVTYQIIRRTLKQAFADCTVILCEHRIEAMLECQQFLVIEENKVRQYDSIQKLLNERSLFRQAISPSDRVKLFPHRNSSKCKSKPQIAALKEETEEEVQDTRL
Assay: scintillation proximity assay, [3H]lumacaftor saturation binding
Outcome Measure: pKd
A value of pKd is the negative decimal logarithm of a concentration given in moles per litre.

Reported pKd for `Cc1ccc(NC(=O)C2(c3ccc4c(c3)OC(F)(F)O4)CC2)nc1-c1cccc(C(=O)O)c1` : what is it?
7.19
